Data origin, for the record: ChEMBL document CHEMBL5143728

tgt: Toll-like receptor 1/2 (Mus musculus, UniProt Q9EPQ1+Q9QUN7)
Sequence (Q9QUN7 whole entry): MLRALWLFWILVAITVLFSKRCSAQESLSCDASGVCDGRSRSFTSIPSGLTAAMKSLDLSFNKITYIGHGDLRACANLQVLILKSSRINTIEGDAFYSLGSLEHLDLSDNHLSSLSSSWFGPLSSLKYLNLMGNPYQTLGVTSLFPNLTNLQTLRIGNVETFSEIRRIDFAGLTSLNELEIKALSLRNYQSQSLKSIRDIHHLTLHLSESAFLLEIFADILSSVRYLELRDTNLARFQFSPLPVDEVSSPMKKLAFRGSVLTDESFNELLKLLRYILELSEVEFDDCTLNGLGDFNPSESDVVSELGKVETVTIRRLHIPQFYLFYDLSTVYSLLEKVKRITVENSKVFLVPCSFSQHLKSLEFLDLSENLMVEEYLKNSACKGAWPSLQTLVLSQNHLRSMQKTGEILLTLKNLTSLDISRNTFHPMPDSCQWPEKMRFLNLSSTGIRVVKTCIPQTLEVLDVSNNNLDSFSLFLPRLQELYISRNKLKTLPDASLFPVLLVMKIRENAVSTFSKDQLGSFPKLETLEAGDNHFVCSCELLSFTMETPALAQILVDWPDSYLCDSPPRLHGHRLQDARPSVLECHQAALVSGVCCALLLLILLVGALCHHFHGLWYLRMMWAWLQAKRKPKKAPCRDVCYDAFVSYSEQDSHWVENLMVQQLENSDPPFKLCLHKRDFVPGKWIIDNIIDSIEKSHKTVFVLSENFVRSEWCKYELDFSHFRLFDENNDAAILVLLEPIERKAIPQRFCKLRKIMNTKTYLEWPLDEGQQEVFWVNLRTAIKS
Sequence (Q9EPQ1 whole entry): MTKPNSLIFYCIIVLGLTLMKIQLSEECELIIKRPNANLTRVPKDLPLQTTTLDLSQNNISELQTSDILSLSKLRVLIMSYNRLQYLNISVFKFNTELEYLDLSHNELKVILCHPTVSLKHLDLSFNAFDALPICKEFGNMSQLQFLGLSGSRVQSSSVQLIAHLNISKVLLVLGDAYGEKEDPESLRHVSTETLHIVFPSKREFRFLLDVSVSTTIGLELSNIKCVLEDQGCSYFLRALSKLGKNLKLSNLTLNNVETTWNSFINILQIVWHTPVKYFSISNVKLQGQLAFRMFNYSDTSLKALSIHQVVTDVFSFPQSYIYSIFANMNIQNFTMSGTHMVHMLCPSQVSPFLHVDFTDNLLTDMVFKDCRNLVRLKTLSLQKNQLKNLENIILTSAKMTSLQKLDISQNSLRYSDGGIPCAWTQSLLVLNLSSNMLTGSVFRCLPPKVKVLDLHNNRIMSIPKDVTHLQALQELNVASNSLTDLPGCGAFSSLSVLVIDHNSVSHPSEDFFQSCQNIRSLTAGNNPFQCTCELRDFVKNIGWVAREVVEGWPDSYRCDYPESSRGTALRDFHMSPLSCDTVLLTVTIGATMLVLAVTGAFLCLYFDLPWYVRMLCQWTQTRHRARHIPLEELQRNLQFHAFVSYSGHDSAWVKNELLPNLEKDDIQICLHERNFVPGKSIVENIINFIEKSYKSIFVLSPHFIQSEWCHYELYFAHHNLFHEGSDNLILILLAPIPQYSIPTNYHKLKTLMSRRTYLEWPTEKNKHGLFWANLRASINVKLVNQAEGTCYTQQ
assayRemarks: Agonist activity at TLR1/TLR2 in wild type C57BL/6J mouse macrophages assessed as stimulation of TNF alpha release measured for 4 hrs by ELISA based assay
pEC50 by entry:
Bear in mind: pEC50 is minus log10 of a mol/L concentration; give just that figure.

The following compounds have reported results that may help.
{"columns": ["smilesText", "pEC50"],
 "data": [
  ["CCCCCCCCNC(=O)[C@@H]1CN(C(=O)c2ccc(C(=O)N3C[C@@H](C(=O)N[C@H]4C[C@@H]4c4ccccc4)[C@H](C(=O)N[C@H]4C[C@@H]4c4ccccc4)C3)cc2)C[C@H]1C(=O)N[C@H]1C[C@@H]1c1ccccc1", 6.27],
  ["CC(C)(C)OC(=O)CCOCCOCCOCCNC(=O)[C@@H]1CN(C(=O)c2ccc(C(=O)N3C[C@@H](C(=O)N[C@H]4C[C@@H]4c4ccccc4)[C@H](C(=O)N[C@H]4C[C@@H]4c4ccccc4)C3)cc2)C[C@H]1C(=O)N[C@H]1C[C@@H]1c1ccccc1", 6.30],
  ["CCCCCCCCCCCCCCNC(=O)[C@@H]1CN(C(=O)c2ccc(C(=O)N3C[C@@H](C(=O)N[C@H]4C[C@@H]4c4ccccc4)[C@H](C(=O)N[C@H]4C[C@@H]4c4ccccc4)C3)cc2)C[C@H]1C(=O)N[C@H]1C[C@@H]1c1ccccc1", 8.96],
  ["CCCCCCNC(=O)[C@@H]1CN(C(=O)c2ccc(C(=O)N3C[C@@H](C(=O)N[C@H]4C[C@@H]4c4ccccc4)[C@H](C(=O)N[C@H]4C[C@@H]4c4ccccc4)C3)cc2)C[C@H]1C(=O)N[C@H]1C[C@@H]1c1ccccc1", 7.10]
]}

// pEC50 value for CCCCCCCCCCNC(=O)[C@@H]1CN(C(=O)c2ccc(C(=O)N3C[C@@H](C(=O)N[C@H]4C[C@@H]4c4ccccc4)[C@H](C(=O)N[C@H]4C[C@@H]4c4ccccc4)C3)cc2)C[C@H]1C(=O)N[C@H]1C[C@@H]1c1ccccc1 : 6.19

* * *

tgt: Toll-like receptor 1/2 (Mus musculus) (UniProt Q9QUN7+Q9EPQ1)
assayRemarks: Agonist activity at TLR1/TLR2 in wild type C57BL/6J mouse macrophages assessed as stimulation of TNF alpha release measured for 4 hrs by ELISA based assay relative to diprovocim-1
Format: cell-based
Parameters: concentration or dose not given beside the values
conditions: Macrophage, filed as agonist
Activity by entry:
Return type: number; implicit unit %.

The following compounds have reported results that may help.
{"columns": ["smilesText", "scaleUnit", "recordedMeasurement"],
 "data": [
  ["[N-]=[N+]=NCCCCCCCCCCCCNC(=O)[C@@H]1CN(C(=O)c2ccc(C(=O)N3C[C@@H](C(=O)N[C@H]4C[C@@H]4c4ccccc4)[C@H](C(=O)N[C@H]4C[C@@H]4c4ccccc4)C3)cc2)C[C@H]1C(=O)N[C@H]1C[C@@H]1c1ccccc1", "%", 50],
  ["O=C(CO)OCCCCCCCCCCCCNC(=O)[C@@H]1CN(C(=O)c2ccc(C(=O)N3C[C@@H](C(=O)N[C@H]4C[C@@H]4c4ccccc4)[C@H](C(=O)N[C@H]4C[C@@H]4c4ccccc4)C3)cc2)C[C@H]1C(=O)N[C@H]1C[C@@H]1c1ccccc1", "%", 140],
  ["O=C(CNC(=O)C(=O)O)OCCCCCCCCCCCCNC(=O)[C@@H]1CN(C(=O)c2ccc(C(=O)N3C[C@@H](C(=O)N[C@H]4C[C@@H]4c4ccccc4)[C@H](C(=O)N[C@H]4C[C@@H]4c4ccccc4)C3)cc2)C[C@H]1C(=O)N[C@H]1C[C@@H]1c1ccccc1", "%", 250],
  ["CC(C)(C)OC(=O)N[C@@H](CCCCNC(=O)OCC1c2ccccc2-c2ccccc21)C(=O)OCCCCCCCCCCCCNC(=O)[C@@H]1CN(C(=O)c2ccc(C(=O)N3C[C@@H](C(=O)N[C@H]4C[C@@H]4c4ccccc4)[C@H](C(=O)N[C@H]4C[C@@H]4c4ccccc4)C3)cc2)C[C@H]1C(=O)N[C@H]1C[C@@H]1c1ccccc1", "%", 200],
  ["C[C@@H](NC(=O)OC(C)(C)C)C(=O)OCCCCCCCCCCCCNC(=O)[C@@H]1CN(C(=O)c2ccc(C(=O)N3C[C@@H](C(=O)N[C@H]4C[C@@H]4c4ccccc4)[C@H](C(=O)N[C@H]4C[C@@H]4c4ccccc4)C3)cc2)C[C@H]1C(=O)N[C@H]1C[C@@H]1c1ccccc1", "%", 200],
  ["CC(C)(C)C(=O)NCC(=O)OCCCCCCCCCCCCNC(=O)[C@@H]1CN(C(=O)c2ccc(C(=O)N3C[C@@H](C(=O)N[C@H]4C[C@@H]4c4ccccc4)[C@H](C(=O)N[C@H]4C[C@@H]4c4ccccc4)C3)cc2)C[C@H]1C(=O)N[C@H]1C[C@@H]1c1ccccc1", "%", 110]
]}

// Activity value for O=C(OCCCCCCCCCCCCNC(=O)[C@@H]1CN(C(=O)c2ccc(C(=O)N3C[C@@H](C(=O)N[C@H]4C[C@@H]4c4ccccc4)[C@H](C(=O)N[C@H]4C[C@@H]4c4ccccc4)C3)cc2)C[C@H]1C(=O)N[C@H]1C[C@@H]1c1ccccc1)c1ccc(O)cc1 : 540

// Activity value for CC[C@H](C)[C@H](NC(=O)OC(C)(C)C)C(=O)OCCCCCCCCCCCCNC(=O)[C@@H]1CN(C(=O)c2ccc(C(=O)N3C[C@@H](C(=O)N[C@H]4C[C@@H]4c4ccccc4)[C@H](C(=O)N[C@H]4C[C@@H]4c4ccccc4)C3)cc2)C[C@H]1C(=O)N[C@H]1C[C@@H]1c1ccccc1 : 140

// Activity value for O=C(NCCCCCCCCCCCCOCc1ccc([N+](=O)[O-])cc1)[C@@H]1CN(C(=O)c2ccc(C(=O)N3C[C@@H](C(=O)N[C@H]4C[C@@H]4c4ccccc4)[C@H](C(=O)N[C@H]4C[C@@H]4c4ccccc4)C3)cc2)C[C@H]1C(=O)N[C@H]1C[C@@H]1c1ccccc1 : 230

// Activity value for O=C(NCCCCCCCCc1ccc(O)cc1)[C@@H]1CN(C(=O)c2ccc(C(=O)N3C[C@@H](C(=O)N[C@H]4C[C@@H]4c4ccccc4)[C@H](C(=O)N[C@H]4C[C@@H]4c4ccccc4)C3)cc2)C[C@H]1C(=O)N[C@H]1C[C@@H]1c1ccccc1 : 380

// Activity value for CC(C)(C)OC(=O)N[C@@H](COCc1ccccc1)C(=O)OCCCCCCCCCCCCNC(=O)[C@@H]1CN(C(=O)c2ccc(C(=O)N3C[C@@H](C(=O)N[C@H]4C[C@@H]4c4ccccc4)[C@H](C(=O)N[C@H]4C[C@@H]4c4ccccc4)C3)cc2)C[C@H]1C(=O)N[C@H]1C[C@@H]1c1ccccc1 : 370

// Activity value for Nc1ccc(COCCCCCCCCCCCCNC(=O)[C@@H]2CN(C(=O)c3ccc(C(=O)N4C[C@@H](C(=O)N[C@H]5C[C@@H]5c5ccccc5)[C@H](C(=O)N[C@H]5C[C@@H]5c5ccccc5)C4)cc3)C[C@H]2C(=O)N[C@H]2C[C@@H]2c2ccccc2)cc1 : 130

// Activity value for CC(C)(C)OC(=O)c1ccc(C(=O)OCCCCCCCCCCCCNC(=O)[C@@H]2CN(C(=O)c3ccc(C(=O)N4C[C@@H](C(=O)N[C@H]5C[C@@H]5c5ccccc5)[C@H](C(=O)N[C@H]5C[C@@H]5c5ccccc5)C4)cc3)C[C@H]2C(=O)N[C@H]2C[C@@H]2c2ccccc2)cc1 : 190

// Activity value for CN(CC(=O)OCCCCCCCCCCCCNC(=O)[C@@H]1CN(C(=O)c2ccc(C(=O)N3C[C@@H](C(=O)N[C@H]4C[C@@H]4c4ccccc4)[C@H](C(=O)N[C@H]4C[C@@H]4c4ccccc4)C3)cc2)C[C@H]1C(=O)N[C@H]1C[C@@H]1c1ccccc1)C(=O)OC(C)(C)C : 110

// Activity value for CC(C)(C)OC(=O)NCC(=O)OCCCCCCCCCCCCNC(=O)[C@@H]1CN(C(=O)c2ccc(C(=O)N3C[C@@H](C(=O)N[C@H]4C[C@@H]4c4ccccc4)[C@H](C(=O)N[C@H]4C[C@@H]4c4ccccc4)C3)cc2)C[C@H]1C(=O)N[C@H]1C[C@@H]1c1ccccc1 : 550

* * *

Emax by entry:
tgt: Toll-like receptor 1/2 (Homo sapiens, UniProt O60603+Q15399)
assayRemarks: Agonist activity at TLR1/TLR2 in human THP-1 derived macrophages assessed as stimulation of TNF alpha release measured for 4 hrs by ELISA based assay relative to diprovocim-1
Format: cell-based
conditions: filed as agonist
Return type: number; implicit unit %.

The following compounds have reported results that may help.
{"columns": ["smilesText", "Emax [%]"],
 "data": [
  ["CCCCCCCCCCCCNC(=O)[C@@H]1CN(C(=O)c2ccc(C(=O)N3C[C@@H](C(=O)N[C@H]4C[C@@H]4c4ccccc4)[C@H](C(=O)N[C@H]4C[C@@H]4c4ccccc4)C3)cc2)C[C@H]1C(=O)N[C@H]1C[C@@H]1c1ccccc1", 110],
  ["CCCCCCCCNC(=O)[C@@H]1CN(C(=O)c2ccc(C(=O)N3C[C@@H](C(=O)N[C@H]4C[C@@H]4c4ccccc4)[C@H](C(=O)N[C@H]4C[C@@H]4c4ccccc4)C3)cc2)C[C@H]1C(=O)N[C@H]1C[C@@H]1c1ccccc1", 100],
  ["CCNC(=O)[C@@H]1CN(C(=O)c2ccc(C(=O)N3C[C@@H](C(=O)N[C@H]4C[C@@H]4c4ccccc4)[C@H](C(=O)N[C@H]4C[C@@H]4c4ccccc4)C3)cc2)C[C@H]1C(=O)N[C@H]1C[C@@H]1c1ccccc1", 90],
  ["CCCCCCNC(=O)[C@@H]1CN(C(=O)c2ccc(C(=O)N3C[C@@H](C(=O)N[C@H]4C[C@@H]4c4ccccc4)[C@H](C(=O)N[C@H]4C[C@@H]4c4ccccc4)C3)cc2)C[C@H]1C(=O)N[C@H]1C[C@@H]1c1ccccc1", 100],
  ["CCCCCCCCCCCCCCNC(=O)[C@@H]1CN(C(=O)c2ccc(C(=O)N3C[C@@H](C(=O)N[C@H]4C[C@@H]4c4ccccc4)[C@H](C(=O)N[C@H]4C[C@@H]4c4ccccc4)C3)cc2)C[C@H]1C(=O)N[C@H]1C[C@@H]1c1ccccc1", 150]
]}

// Emax value for CCCCCCCCCCCCCCCCNC(=O)[C@@H]1CN(C(=O)c2ccc(C(=O)N3C[C@@H](C(=O)N[C@H]4C[C@@H]4c4ccccc4)[C@H](C(=O)N[C@H]4C[C@@H]4c4ccccc4)C3)cc2)C[C@H]1C(=O)N[C@H]1C[C@@H]1c1ccccc1 : 110
